Tested on: dengue virus type 2
Assay: Antiviral activity against dengue virus 2 infected in BHK21 cells assessed as inhibition of virus-induced cytopathic effect after 4 days by resazurin dye based method
Assay type: functional, cell-based
Conditions: Dengue virus, BHK-21, 96 h; read-out: EC50
pEC50: −log10 of the molar value.
Outcome label depends on pEC50 relative to 5: at/above gives True, below gives False.

Solved cases (3 shown):
Smiles string	Group label
N=C(N)NCCC[C@@H]1NC(=O)[C@H](CCCNC(=N)N)NC(=O)[C@@H](CCCNC(=N)N)NC(=O)[C@@H](CCCNC(=N)N)NC(=O)[C@H](CO)NC(=O)[C@H](Cc2ccc(-c3ccccc3)cc2)NC(=O)[C@H](CO)NC(=O)[C@H](CCCCN)NC1=O	False
N=C(N)NCCC[C@@H]1NC(=O)[C@H](CCCNC(=N)N)NC(=O)[C@H]2CCCN2C(=O)[C@@H](Cc2ccccc2)NC(=O)[C@H](CO)NC(=O)[C@H](Cc2ccc(-c3ccccc3)cc2)NC(=O)[C@H](CO)NC(=O)[C@H](CCCCN)NC1=O	False
N=C(N)NCCC[C@@H]1NC(=O)[C@H](CCCCN)NC(=O)[C@H]2CCCN2C(=O)[C@@H](Cc2ccccc2)NC(=O)[C@H](CO)NC(=O)[C@H](Cc2ccc(-c3ccccc3)cc2)NC(=O)[C@H](CO)NC(=O)[C@H](CCCCN)NC1=O	False

Challenge: Hello, I need to know if N=C(N)NCCC[C@@H]1NC(=O)[C@H](CCCNC(=N)N)NC(=O)[C@@H](CCCNC(=N)N)NC(=O)[C@@H](Cc2ccc3ccccc3c2)NC(=O)[C@H](Cc2ccccc2)NC(=O)[C@H](CCc2ccccc2)NC(=O)[C@@H](Cc2ccc3ccccc3c2)NC(=O)[C@H](CCCCN)NC1=O has measured pEC50 not below 5. Thanks!
Response given: True

Challenge: Next compound: N=C(N)NCCC[C@@H]1NC(=O)[C@H](CCCNC(=N)N)NC(=O)[C@@H](CCCNC(=N)N)NC(=O)[C@@H](Cc2ccccc2)NC(=O)[C@H](CO)NC(=O)[C@H](Cc2ccc(-c3ccccc3)cc2)NC(=O)[C@H](CO)NC(=O)[C@H](CCCCN)NC1=O
Response given: False

Challenge: Try this compound next: N=C(N)NCCC[C@@H]1NC(=O)[C@H](CCCNC(=N)N)NC(=O)[C@@H](CCCNC(=N)N)NC(=O)[C@@H](Cc2ccccc2)NC(=O)[C@H](Cc2ccc3ccccc3c2)NC(=O)[C@H](CCc2ccccc2)NC(=O)[C@H](CO)NC(=O)[C@H](CCCCN)NC1=O
Response given: False

Challenge: Next compound: N=C(N)NCCC[C@@H]1NC(=O)[C@H](CCCNC(=N)N)NC(=O)[C@@H](CCCNC(=N)N)NC(=O)[C@@H](Cc2ccc3ccccc3c2)NC(=O)[C@H](Cc2ccccc2)NC(=O)[C@H](CCc2ccccc2)NC(=O)[C@@H](Cc2ccccc2)NC(=O)[C@H](CCCCN)NC1=O
Response given: True

====

Assay: Toxicity in BHK21 cells assessed a reduction in cell viability after 4 days by resazurin dye based method
Design: species or system Mesocricetus auratus, BHK-21
Details: hamster
Threshold 100 µM: CC50 at 96 h strictly smaller gives YES, otherwise NO.

Use these answered entries as a reference point.
Smiles string	Group label
N=C(N)NCCC[C@@H]1NC(=O)[C@H](CCCNC(=N)N)NC(=O)[C@@H](CCCNC(=N)N)NC(=O)[C@@H](Cc2ccc3ccccc3c2)NC(=O)[C@H](Cc2ccccc2)NC(=O)[C@H](CCc2ccccc2)NC(=O)[C@@H](Cc2ccc3ccccc3c2)NC(=O)[C@H](CCCCN)NC1=O	YES
C[C@@H]1NC[C@H](CCCCN)NC(=O)[C@H](CCCNC(=N)N)NC(=O)[C@H](CCCNC(=N)N)NC(=O)[C@@H](CCCNC(=N)N)NC(=O)[C@@H](Cc2ccccc2)NC(=O)[C@H](Cc2cccc3ccccc23)NC(=O)[C@H](CCc2ccccc2)NC1=O	NO
N=C(N)NCCC[C@@H]1NC(=O)[C@H](CCCNC(=N)N)NC(=O)[C@H]2CCCN2C(=O)[C@@H](Cc2ccccc2)NC(=O)[C@H](CO)NC(=O)[C@H](Cc2ccc(-c3ccccc3)cc2)NC(=O)[C@H](CO)NC(=O)[C@H](CCCCN)NC1=O	NO

Challenge: Please check: CC50 at 96 h for N=C(N)NCCC[C@@H]1NC(=O)[C@H](CCCCN)NC(=O)[C@H]2CCCN2C(=O)[C@@H](Cc2ccccc2)NC(=O)[C@H](CO)NC(=O)[C@H](Cc2ccc(-c3ccccc3)cc2)NC(=O)[C@H](CO)NC(=O)[C@H](CCCCN)NC1=O , strictly under 100 µM or not?
Response given: NO

Challenge: Now the molecule C[C@@H]1NC(=O)[C@H](CCCCN)NC(=O)[C@H](CCCNC(=N)N)NC(=O)[C@H](CCCNC(=N)N)NC(=O)[C@@H](CCCNC(=N)N)NC(=O)[C@@H](Cc2ccccc2)NC(=O)[C@H](Cc2cccc3ccccc23)NC(=O)[C@H](CCc2ccccc2)NC1=O
Response given: NO

Challenge: Quick one: N=C(N)NCCC[C@@H]1NC(=O)[C@H](CCCNC(=N)N)NC(=O)[C@@H](CCCNC(=N)N)NC(=O)[C@@H](Cc2ccccc2)NC(=O)[C@H](Cc2ccc3ccccc3c2)NC(=O)[C@H](CCc2ccccc2)NC(=O)[C@H](CO)NC(=O)[C@H](CCCCN)NC1=O
Response given: NO

Challenge: And N=C(N)NCCC[C@@H]1NC(=O)[C@H](CCCNC(=N)N)NC(=O)[C@@H](CCCNC(=N)N)NC(=O)[C@@H](CCCNC(=N)N)NC(=O)[C@H](CO)NC(=O)[C@H](Cc2ccc(-c3ccccc3)cc2)NC(=O)[C@H](CO)NC(=O)[C@H](CCCCN)NC1=O ?
Response given: NO

Challenge: Also, N=C(N)NCCC[C@@H]1NC(=O)[C@H](CCCNC(=N)N)NC(=O)[C@@H](CCCNC(=N)N)NC(=O)[C@@H](Cc2ccccc2)NC(=O)[C@H](Cc2cccc3ccccc23)NC(=O)[C@H](CCc2ccccc2)NC(=O)[C@H](CO)NC(=O)[C@H](CCCCN)NC1=O please.
Response given: NO

====

Test: Selectivity index, ratio of CC50 for toxicity in BHK21 cells to EC50 for antiviral activity against dengue virus 2 infected in BHK21 cells
Format: cell-based
Conditions: hamster, read-out: Ratio CC50/EC50
Quantity measured: selectivity ratio

Challenge: What measured selectivity ratio goes with N=C(N)NCCC[C@@H]1NC(=O)[C@H](CCCNC(=N)N)NC(=O)[C@@H](CCCNC(=N)N)NC(=O)[C@@H](Cc2ccc3ccccc3c2)NC(=O)[C@H](Cc2ccccc2)NC(=O)[C@H](CCc2ccccc2)NC(=O)[C@@H](Cc2ccc3ccccc3c2)NC(=O)[C@H](CCCCN)NC1=O ?
Response given: > 10

====

Test system: dengue virus type 2
Experiment: Antiviral activity against dengue virus 2 infected in BHK21 cells assessed as inhibition of virus-induced cytopathic effect after 4 days by resazurin dye based method
Assay type: functional, cell-based
Details: Dengue virus, BHK-21, 96 h; read-out: EC50
Quantity measured: pEC50
Answers are plain numbers, as −log10 of the molar value.

Completed entries (count: 2):
Smiles string	pEC50
C[C@@H]1NC(=O)[C@H](CCCCN)NC(=O)[C@H](CCCNC(=N)N)NC(=O)[C@H](CCCNC(=N)N)NC(=O)[C@@H](CCCNC(=N)N)NC(=O)[C@@H](Cc2ccccc2)NC(=O)[C@H](Cc2cccc3ccccc23)NC(=O)[C@H](CCc2ccccc2)NC1=O	4.93
N=C(N)NCCC[C@@H]1NC(=O)[C@H](CCCNC(=N)N)NC(=O)[C@@H](CCCNC(=N)N)NC(=O)[C@@H](Cc2ccccc2)NC(=O)[C@H](Cc2cccc3ccccc23)NC(=O)[C@H](CCc2ccccc2)NC(=O)[C@H](CO)NC(=O)[C@H](CCCCN)NC1=O	4.63

Now turn to the next molecule.
Challenge: Any idea what pEC50 was measured for N=C(N)NCCC[C@@H]1NC(=O)[C@H](CCCCN)NC(=O)[C@H]2CCCN2C(=O)[C@@H](Cc2ccccc2)NC(=O)[C@H](CO)NC(=O)[C@H](Cc2ccc3ccccc3c2)NC(=O)[C@H](CO)NC(=O)[C@H](CCCCN)NC1=O ?
Response given: 3.51

====

Assay: Toxicity in BHK21 cells assessed a reduction in cell viability after 4 days by resazurin dye based method
Set-up: species or system Mesocricetus auratus, BHK-21
Conditions: hamster
Quantity measured: CC50 at 96 h

Smiles string	CC50 at 96 h
N=C(N)NCCC[C@@H]1NC(=O)[C@H](CCCNC(=N)N)NC(=O)[C@@H](CCCNC(=N)N)NC(=O)[C@@H](Cc2ccc3ccccc3c2)NC(=O)[C@H](Cc2ccccc2)NC(=O)[C@H](CCc2ccccc2)NC(=O)[C@@H](Cc2ccccc2)NC(=O)[C@H](CCCCN)NC1=O	86 µM
N=C(N)NCCC[C@@H]1NC(=O)[C@H](CCCNC(=N)N)NC(=O)[C@@H](CCCNC(=N)N)NC(=O)[C@@H](Cc2ccccc2)NC(=O)[C@H](CO)NC(=O)[C@H](Cc2ccc(-c3ccccc3)cc2)NC(=O)[C@H](CO)NC(=O)[C@H](CCCCN)NC1=O	> 400 µM

Challenge: Consider the molecule shown here: N=C(N)NCCC[C@@H]1NC(=O)[C@H](CCCCN)NC(=O)[C@H]2CCCN2C(=O)[C@@H](Cc2ccccc2)NC(=O)[C@H](CO)NC(=O)[C@H](Cc2ccc3ccccc3c2)NC(=O)[C@H](CO)NC(=O)[C@H](CCCCN)NC1=O What is its recorded CC50 at 96 h?
Response given: > 400 µM
